- Test system: MDA-MB-435
- Procedure Details: NCI tumour cell line growth inhibition, 48 h
// reported TGI per item
Experimental Endpoint: TGI

1. CN(c1ccc(C(=O)O)cc1)c1cc(O/N=[N+](\[O-])N(C)C)c([N+](=O)[O-])cc1[N+](=O)[O-]	19.9 µM
2. CCCCN(CC)C(=O)C1=C(C)NC(C)=C(C(=O)N(CC)CCCC)C1	> 100 µM
3. NC(=O)C1CCCNC1 (stereo not given)	> 100 µM
4. Cc1cc(=O)[nH]c(-n2[nH]c3c(c2=O)CCCC3)n1	> 100 µM
5. Cc1ccc(O)c(-c2cc(-c3cccc(Br)c3)c(C#N)c(N)n2)c1	39.8 µM
6. O=c1c(Nc2ccccc2)cn(CCOc2ccccc2)c(=O)n1CCOc1ccccc1	> 100 µM
7. Cc1cccc(NS(=O)(=O)c2ccc3c(c2)OCCOCCOCCOCCO3)c1	> 100 µM
8. O=C(C(=O)c1cc(-c2ccccc2)nc2ccc3ccccc3c12)c1ccccc1	> 100 µM
9. CCCOc1ccc2sc(NC(=O)c3cc([N+](=O)[O-])cc([N+](=O)[O-])c3)nc2c1	> 100 µM
10. COC(=O)C1=C(C(=O)OC)SC2(S1)C1=C(CCC1)SC(C(=O)OC)=C2C(=O)OC	26 µM
11. CC(=O)N(C)C(C(=O)N1CC(C)CC1C(=O)N(C)C1C(=O)NC(CC(C)C)C(=O)N2CC(C)CC2C(=O)NC(CC(C)C)C(=O)N(C)C(C(C)C)C(=O)N2CCCC2C(=O)N(C)C(CC(C)C)C(=O)NCC(=O)OC1C)C(C)C (stereo not given)	> 100 µM
12. CN(C)c1ccc(C2C(Cl)C(=O)N2NC(=O)c2c(Cl)c(Cl)c(Cl)c(Cl)c2-c2nc3ccccc3[nH]2)cc1 (stereo not given)	> 100 µM
13. CCN(Cc1cc(F)cc(F)c1)c1ccc(CO)c(Cl)c1	30 µM
14. Cc1cn(CC2=NCC(O)CN2)c(=O)[nH]c1=O (stereo not given)	> 100 µM
15. Nc1ccc(Sc2nnc(N)s2)cc1	> 100 µM
16. CN(C)CCCNc1nc2ccccc2c2c(=O)c3cc(F)ccc3sc12	3.36 µM
17. CN(C)CCNC(=O)c1cccc2nc3c(ccc4ccccc43)nc12	13.7 µM
18. O=C1NC(=O)/C(=C/c2ccc3ncccc3c2)S1	> 25 µM
19. C[Si](C)(C)CNC(=O)OCc1ccccc1	> 100 µM
20. Cc1ccc(N(CC(=O)Nc2ccc(S(=O)(=O)NC3CCN(C)CC3)cc2)S(=O)(=O)c2ccc(Cl)cc2)cc1	3.57 µM

====

// reported GI50 for each item listed
- Test system: MOLT-4 leukemia
- Procedure Details: NCI tumour cell line growth inhibition, 48 h
Experimental Endpoint: GI50

1) O=C1NC(=O)/C(=C/c2ccc3ncccc3c2)S1	> 25 µM
2) COc1cc(C2CC(c3ccc(SC)cc3)=NN2C(C)=O)cc(OC)c1OC (stereo unspecified)	5.2 µM
3) CCCCc1ccc(NS(=O)(=O)c2cc3c4c(c2)CCN4C(=O)CC3)cc1	11.2 µM
4) O=c1[nH]cnc2c1ncn2C1CCC(CO)O1 (stereo unspecified)	> 1000 µM
5) CN(C)CCNc1c2c(c(NCCN(C)C)c3c(CN(C)C)c[nH]c13)C(=O)c1ccccc1C2=O	0.582 µM
6) O=C(CCCBr)Nc1ccccc1C#C/C=C\C#Cc1ccccc1C(F)(F)F	16.3 µM

====

- System: COLO 205 colon
- Procedure Details: NCI tumour cell line growth inhibition, 48 h
Measured TGI, listed per entry.
Experimental Endpoint: TGI (µM)

1) N#Cc1cc(-c2ccnc(Nc3ccc(NC(=O)CCl)cc3)n2)ccc1N1CCCC1	7.17
2) O=S1(=O)OCCOS(=O)(=O)C1(I)I	37.8
3) O=C(c1ccc(Oc2ccccc2)cc1Cl)c1c[nH]c2ncnc(N[C@@H]3CC[C@@H](CO)OC3)c12	0.351
4) COc1ccc(/C=C/C(=O)c2c(O)c(C)c(O)c3c2OC2=CC(O)=C(C(C)=O)C(=O)[C@]23C)cc1	4.54
5) COc1cc(C=C2c3ccccc3C(=O)c3ccccc32)ccc1OCCCCOc1cc2c(cc1OC)C(=O)N1CCCC1C=N2 (stereo unspecified)	1.67

====

- System: SR leukemia
- Procedure Details: NCI tumour cell line growth inhibition, 48 h
Experimental Endpoint: TGI

1) C#CCn1c(=O)[nH]c(=O)c2cccnc21	> 100 µM
2) NC(C/C=C/P(=O)(O)O)C(=O)O (stereo unspecified)	> 100 µM
3) CN(C)C1C(CO)OC(n2cnc3c(N)ncnc32)C1O (stereo unspecified)	> 100 µM
4) Cc1ccc(S(=O)(=O)OCC23CCC(C2)C2CC23)cc1 (stereo unspecified)	> 100 µM
5) CN(C)/C=N/S(=O)(=O)c1nn2c(C=O)c(-c3ccccc3)nc2s1	21.3 µM
6) CCCCCCCCCCCCCCCCOCC(Cl)CP(=O)(O)OP(=O)(O)OCC1OC(n2cnc3c(N)ncnc32)C(O)C1O (stereo unspecified)	> 100 µM
7) COc1cc(/C=C2\CCC(C)(CN(C)C)C2=O)cc(OC)c1OC (stereo unspecified)	> 100 µM
8) CCCCCCCCCCCC(=O)N(CCCCCCCCCCC(=O)O)CC(O)C(O)C(OC1OC(CO)C(O)C(O)C1O)C(O)CO (stereo unspecified)	> 100 µM
9) CN(C)CCNC(=O)c1cccc2nc3c(ccc4ccccc43)nc12	4.25 µM
10) CCN(Cc1cc(F)cc(F)c1)c1ccc(CO)c(Cl)c1	43.6 µM
11) O=C(C(=O)c1cc(-c2ccccc2)nc2ccc3ccccc3c12)c1ccccc1	> 100 µM
12) O=C1CC(=O)c2c(N3CCCC3)sc(N3CCCC3)c21	> 100 µM
13) Cc1cc2c(cc1O)[nH]c1cc3c(cc12)C=CC(C)(C)O3	24.9 µM
14) CCC1(O)C(=O)OCc2c1cc1n(c2=O)Cc2cc3cc(OC)c(OC)cc3nc2-1 (stereo unspecified)	7.68 µM
15) COc1cccc(-c2nc(-c3cnccn3)n(C3OC(CO)C(O)C3O)n2)c1 (stereo unspecified)	> 100 µM
16) O=C1NC(=O)/C(=C/c2ccc3ncccc3c2)S1	> 25 µM
17) c1ccc(COC2NCCN2Cc2ccccc2)cc1 (stereo unspecified)	> 100 µM
18) CN(C)c1nc2nonc2nc1Nc1ccccc1	> 100 µM
19) O=c1[nH]c2cc([N+](=O)[O-])ccc2nc1/C(=N/Nc1ccccc1)C(O)c1ccc(Cl)cc1Cl (stereo unspecified)	82.4 µM
20) C#CC1(O)C(COP(=O)(O)OC(COCCCCCCCCCCCCCCCCCC)COP(=O)(O)OCC2OC(n3cc(C)c(=O)[nH]c3=O)CC2N=[N+]=[N-])OC(n2ccc(N)nc2=O)C1O (stereo unspecified)	> 86.3 µM
21) CC[C@@]1(O)C(=O)OCc2c1cc1n(c2=O)Cc2c-1nc1ccccc1c2/C=N/NC(=O)C[N+](C)(C)C	0.922 µM
22) [O-][n+]1c(-c2ccccc2)oc2ccccc21	> 100 µM
23) CCOC(=O)C1CSCCSC1	> 100 µM
24) COc1cc(/C=C/[N+](=O)[O-])c([N+](=O)[O-])cc1OC	8.24 µM
25) O=S1(=O)OCCOS(=O)(=O)C1(I)I	49.1 µM
26) CO[C@H]1/C=C/[C@@](C)(O)/C=C/C(=O)O[C@H](C)[C@@H](C)CC/C=C/1C	> 100 µM
27) CC(c1ccccc1)N1C(=O)CSC1=S (stereo unspecified)	> 100 µM
28) COc1ccc(C(c2ccc(OC)cc2)N2C(=O)CCC2C(=O)O)cc1 (stereo unspecified)	> 100 µM
29) O=c1c(Nc2ccccc2)cn(CCOc2ccccc2)c(=O)n1CCOc1ccccc1	> 100 µM
30) Cc1ccccc1NC(=O)C(=O)C1CN(c2ccccc2)N=C1N (stereo unspecified)	> 100 µM
31) O=C1c2ccccc2C(=O)N1[C@@H](Cc1ccccc1)C(=O)n1cccc1CO	> 100 µM
32) COc1cc(Nc2ncc3c(C)nc(-c4cccc(C(F)(F)F)c4)n3n2)cc(OC)c1OC	17.5 µM
33) O=C(O)C1(Nc2ccc(Cl)cc2)CCCC1	> 100 µM
34) CN(c1ccc(C(=O)O)cc1)c1cc(O/N=[N+](\[O-])N(C)C)c([N+](=O)[O-])cc1[N+](=O)[O-]	> 100 µM
35) Clc1ccc(-c2nc3ccc(Cl)cc3[nH]2)cc1	> 100 µM
36) C=CCOC1=C(OC(C)=O)C(=O)OC1C1COC(C)(C)O1 (stereo unspecified)	9.02 µM

====

- Tested on: SW-620 colon
- Procedure Details: NCI tumour cell line growth inhibition, 48 h
Experimental Endpoint: TGI (µM)

1) C=C(C)[C@@H]1/C=C(/C(C)C)CC[C@@]2(C)OC2CC[C@H](C)CC1=O (stereo not given in full)	65.7
2) COc1cc(/C=C/[N+](=O)[O-])c([N+](=O)[O-])cc1OC	2.26
